Data origin: patent US20250355001A1

// reported Shortest region bound on hT40 for each item listed
Test system: hT40, dGA, dGAE and truncated tau fragments
assay_comment: Binding ELISA / epitope mapping of anti-tau scAbs with truncated tau proteins and 13mer peptides
Set-up: species or system human
reported_conditions: Table 17; 'C' group scAbs; incl. 13mer peptides
Procedure: A series of binding ELISA was performed using various truncated versions of the tau protein and 13mer peptide libraries spanning the entire hT40 molecule for mapping the epitopes of anti-tau scAbs (Full list of protein antigens used is given in Table 14). […] Binding was detected using anti-Human C Kappa HRP conjugated secondary antibody and the resulting immunoreaction was developed and absorbance values measured as described above. […]

CE3: anti-tau core clone, Table 10; SEQ ID NO: 367 (protein, CE3 amino acid sequence) scFv: QVRLQESGPSLVKPSQTLSVTCTVSGFSLISNAVGWVRQAPGKVPESLAGCSSDGKCYYNSALKSRLDITRDTSKNQISLSLSSVTTDDAAVYYCTRGYYPVYGYDYLGTIDYWGPGLLVTVSSEGKSSGASGESKVDDQAVLTQPSSVSGSLGQRVSITCSGSSSNVGRNDVAWFQQLPGSGLRTIIYGTTSRPSGIPDRFSGSKSGVTATLTIDSLQAEDEADYFCASGDSSAINDIFGSGTRLTVLG | 331-360

Q: Reported Shortest region bound on hT40 for CB3: anti-tau core clone, Table 10; SEQ ID NO: 370 (protein, CB3 amino acid sequence) scFv: QVQLQESGPSLVKPSQTLSLTCTVSGFSLSSVAVNWVRQAPGKVPEWLGGIISNGGTGYNPALKSRLSITRDTSKSQVSLALTHVTTEDTAVYYCGRGVEWEGSMDYLGPGLLVTVSSEGKSSGSGSETKVDDQSVLTQPSSVSGFLGQRVTITCSGSSSNVGAGSYVGWYQQVPGSGLRILIYGATKRASGLPDRFSGSRSGNTATLTISSLQAEDEADYYCVSYQTDFTLVFGSGTRLTVLG : what is it?
A: 360-390

Q: Reported Shortest region bound on hT40 for CA2: anti-tau clone, Table 10; SEQ ID NO: 363 (protein, CA2 amino acid sequence) QVQLQESGPSLVKPSQTLSLTCTVSGFSLSSVAVNWVRQAPGKVPEWLGGIISNGGTGYNPALKSRLSITRDTSKSQVSLALTHVTTEDTAVYYCGRGVEWEGSMDYLGPGLLVTVSSEGKSSGSGSETKVDDQSVLTQPSSVSGFLGQRVTITCSGSSSNVGAGSYVGWYQQVPGSGLRILIYGATKRASGLPDRFSGSRSGNTATLTISSLQAEDEADYYCVSYQTDFTLVFGSGTRLTVLG : what is it?
A: 1-155

Q: Reported Shortest region bound on hT40 for CA9: anti-tau clone, Tables 2 and 10; SEQ ID NO: 371 (protein, CA9 amino acid sequence) scFv: QVQLQESGPSLVKPSQTLSLTCTVSGFSLTSNSVGWVRQAPGKAPEWVAGIDTDGEEGYNPALNSRLSITRDTSKSQVSLSLSSVTSEDTAVYYCGRSYRSDGLAYGYVQAIDYWGPGLLVTVSSEGKSSGASGESKVDDQAVLTQPASVSGSLGQRVSITCSGSFIGISSVGWFQQLPGSGLRTIIVASDGRPSGVPDRFSMSKSGNTATLTISSLQAEDEADYFCGSSDRTQYTGVFGSGTRLTVLG : what is it?
A: 367-379

Q: Reported Shortest region bound on hT40 for CB7: human-specific N-terminal anti-tau clone, Table 10; SEQ ID NO: 364 (protein, CB7 amino acid sequence) scFv: QVQLQESGPSLVKPSQTLSLTCTVSGFSLTNYRVGWVRQAPGKALEWVSNIRSGGTTWYNPALKSRLSITADTSKSQVSLSLSSVTTEDTAVYYCARDSSGDLYAYDYWGPGLLVTVSSEGKSSGASGESKVDDQAVLTQPSSVSRSLGQSVSMTCSGSSSNVGYGNYMAWFQQVPGSAPKLLIYGATSRASGVPDRFSGSRSGNTATLTISSLQAEDEADYYCASYDSTSGGVFGSGTRLTVLG : what is it?
A: 13-25

Q: Reported Shortest region bound on hT40 for CC7: human-specific anti-tau clone, Table 10; SEQ ID NO: 365 (protein, CC7 amino acid sequence) scFv: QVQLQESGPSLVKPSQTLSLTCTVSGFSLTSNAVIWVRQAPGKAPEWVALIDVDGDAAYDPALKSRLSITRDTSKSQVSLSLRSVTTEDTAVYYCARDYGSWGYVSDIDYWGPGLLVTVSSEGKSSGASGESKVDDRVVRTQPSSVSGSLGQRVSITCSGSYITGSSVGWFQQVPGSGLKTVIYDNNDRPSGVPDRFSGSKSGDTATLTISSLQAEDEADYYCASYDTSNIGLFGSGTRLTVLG : what is it?
A: 145-157
